So I've got a bunch of binders here, and I need their koff values.
Biological target: T1, human FcRn/b2M (human, UniProt P61769 21-119, biotinylated)
T1 construct: bought recombinant biotinylated protein (ACRO FCM-H82W4 or Immunitrack ITF01); also called hFcRn; hFcRn/hb2M
T1 sequence (chain, as listed by the source limits assumed, chain 1 of 2): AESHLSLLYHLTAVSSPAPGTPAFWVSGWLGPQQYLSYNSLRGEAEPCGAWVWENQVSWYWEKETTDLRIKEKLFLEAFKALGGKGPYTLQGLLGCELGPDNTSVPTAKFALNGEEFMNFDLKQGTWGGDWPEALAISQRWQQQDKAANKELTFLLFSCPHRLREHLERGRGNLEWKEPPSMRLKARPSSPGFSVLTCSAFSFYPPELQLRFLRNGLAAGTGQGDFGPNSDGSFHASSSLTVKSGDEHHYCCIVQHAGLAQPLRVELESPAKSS
T1 sequence (P61769 21-119 limits assumed, chain 2 of 2): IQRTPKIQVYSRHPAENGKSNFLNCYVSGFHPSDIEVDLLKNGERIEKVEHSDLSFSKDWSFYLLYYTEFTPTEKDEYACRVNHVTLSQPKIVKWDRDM
Experiment: SPR pH 7.4;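 note: surface plasmon resonance kinetics, periplasmic extracts diluted 1:10 flowed over immobilized target at 25 °C, 120 s association then 600–3600 s dissociation, buffer with 150 mM NaCl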
Dear colleague, please send the value followed by its unit.

Exam item: Quick one: koff of T0263018B11 G26E (VHH, name in Kabat numbering, FLAG3-His6 tagged) VHH: EVQLVESGGGVVQPGGSLRLSCAASEFTFSSYAMYWVRQAPGKGLEWVSAISSGGGSTDYADSVKGRFTISRDNSKNTLYLQMNSLRPEDTALYYCAADTLYTSLTWYSYWGQGTLVTVSS ?
Marked response: 0.042 s⁻¹

Exam item: Quick one: koff of T0263018B11 Y102T (VHH, name in Kabat numbering, FLAG3-His6 tagged) VHH: EVQLVESGGGVVQPGGSLRLSCAASGFTFSSYAMYWVRQAPGKGLEWVSAISSGGGSTDYADSVKGRFTISRDNSKNTLYLQMNSLRPEDTALYYCAADTLYTSLTWYSTWGQGTLVTVSS ?
Marked response: 0.065 s⁻¹

Exam item: Quick one: koff of T0263018B11 T96A (VHH, name in Kabat numbering, FLAG3-His6 tagged) VHH: EVQLVESGGGVVQPGGSLRLSCAASGFTFSSYAMYWVRQAPGKGLEWVSAISSGGGSTDYADSVKGRFTISRDNSKNTLYLQMNSLRPEDTALYYCAADALYTSLTWYSYWGQGTLVTVSS ?
Marked response: 0.14 s⁻¹

Exam item: Quick one: koff of T0263018B11 S52aW (VHH, name in Kabat numbering, FLAG3-His6 tagged) VHH: EVQLVESGGGVVQPGGSLRLSCAASGFTFSSYAMYWVRQAPGKGLEWVSAISWGGGSTDYADSVKGRFTISRDNSKNTLYLQMNSLRPEDTALYYCAADTLYTSLTWYSYWGQGTLVTVSS ?
Marked response: 0.062 s⁻¹

Exam item: Quick one: koff of T0263018B11 D58Y (VHH, name in Kabat numbering, FLAG3-His6 tagged) VHH: EVQLVESGGGVVQPGGSLRLSCAASGFTFSSYAMYWVRQAPGKGLEWVSAISSGGGSTYYADSVKGRFTISRDNSKNTLYLQMNSLRPEDTALYYCAADTLYTSLTWYSYWGQGTLVTVSS ?
Marked response: 0.089 s⁻¹

Exam item: Quick one: koff of T0263018B11 D58E (VHH, name in Kabat numbering, FLAG3-His6 tagged) VHH: EVQLVESGGGVVQPGGSLRLSCAASGFTFSSYAMYWVRQAPGKGLEWVSAISSGGGSTEYADSVKGRFTISRDNSKNTLYLQMNSLRPEDTALYYCAADTLYTSLTWYSYWGQGTLVTVSS ?
Marked response: 0.08 s⁻¹

Exam item: Quick one: koff of T0263018B11 T57N (VHH, name in Kabat numbering, FLAG3-His6 tagged) VHH: EVQLVESGGGVVQPGGSLRLSCAASGFTFSSYAMYWVRQAPGKGLEWVSAISSGGGSNDYADSVKGRFTISRDNSKNTLYLQMNSLRPEDTALYYCAADTLYTSLTWYSYWGQGTLVTVSS ?
Marked response: 0.037 s⁻¹

Exam item: Quick one: koff of T0263018B11 Y35F (VHH, name in Kabat numbering, FLAG3-His6 tagged) VHH: EVQLVESGGGVVQPGGSLRLSCAASGFTFSSYAMFWVRQAPGKGLEWVSAISSGGGSTDYADSVKGRFTISRDNSKNTLYLQMNSLRPEDTALYYCAADTLYTSLTWYSYWGQGTLVTVSS ?
Marked response: 0.14 s⁻¹

Exam item: Quick one: koff of T0263018B11 T96I (VHH, name in Kabat numbering, FLAG3-His6 tagged) VHH: EVQLVESGGGVVQPGGSLRLSCAASGFTFSSYAMYWVRQAPGKGLEWVSAISSGGGSTDYADSVKGRFTISRDNSKNTLYLQMNSLRPEDTALYYCAADILYTSLTWYSYWGQGTLVTVSS ?
Marked response: 0.036 s⁻¹

Exam item: Quick one: koff of T0263018B11 S52aD (VHH, name in Kabat numbering, FLAG3-His6 tagged) VHH: EVQLVESGGGVVQPGGSLRLSCAASGFTFSSYAMYWVRQAPGKGLEWVSAISDGGGSTDYADSVKGRFTISRDNSKNTLYLQMNSLRPEDTALYYCAADTLYTSLTWYSYWGQGTLVTVSS ?
Marked response: 0.044 s⁻¹

Exam item: Quick one: koff of T0263018B11 S30D (VHH, name in Kabat numbering, FLAG3-His6 tagged) VHH: EVQLVESGGGVVQPGGSLRLSCAASGFTFDSYAMYWVRQAPGKGLEWVSAISSGGGSTDYADSVKGRFTISRDNSKNTLYLQMNSLRPEDTALYYCAADTLYTSLTWYSYWGQGTLVTVSS ?
Marked response: 0.13 s⁻¹

Exam item: Quick one: koff of T0263018B11 S56Q (VHH, name in Kabat numbering, FLAG3-His6 tagged) VHH: EVQLVESGGGVVQPGGSLRLSCAASGFTFSSYAMYWVRQAPGKGLEWVSAISSGGGQTDYADSVKGRFTISRDNSKNTLYLQMNSLRPEDTALYYCAADTLYTSLTWYSYWGQGTLVTVSS ?
Marked response: 0.067 s⁻¹

Exam item: Quick one: koff of T0263018B11 S101V (VHH, name in Kabat numbering, FLAG3-His6 tagged) VHH: EVQLVESGGGVVQPGGSLRLSCAASGFTFSSYAMYWVRQAPGKGLEWVSAISSGGGSTDYADSVKGRFTISRDNSKNTLYLQMNSLRPEDTALYYCAADTLYTSLTWYVYWGQGTLVTVSS ?
Marked response: 0.032 s⁻¹

Exam item: Quick one: koff of T0263018B11 S30K (VHH, name in Kabat numbering, FLAG3-His6 tagged) VHH: EVQLVESGGGVVQPGGSLRLSCAASGFTFKSYAMYWVRQAPGKGLEWVSAISSGGGSTDYADSVKGRFTISRDNSKNTLYLQMNSLRPEDTALYYCAADTLYTSLTWYSYWGQGTLVTVSS ?
Marked response: 0.069 s⁻¹

Exam item: Quick one: koff of T0263018B11 Y100dF (VHH, name in Kabat numbering, FLAG3-His6 tagged) VHH: EVQLVESGGGVVQPGGSLRLSCAASGFTFSSYAMYWVRQAPGKGLEWVSAISSGGGSTDYADSVKGRFTISRDNSKNTLYLQMNSLRPEDTALYYCAADTLYTSLTWFSYWGQGTLVTVSS ?
Marked response: 0.06 s⁻¹
